- experimental_target: T1, AAV5 (adeno-associated virus 5, Assembled 60-mer capsid of VP1/VP2/VP3 (nested products of one cap gene), amine-coupled to a CM5 chip; the letters give one VP1 subunit only.)
- T1 construct: also called adeno-associated virus serotype 5
- assay_info: SPR, AAV amine-coupled to CM5 chip
Hi there, I'd appreciate the recorded kon for every entry that follows.
API: value field is a number in M⁻¹ s⁻¹; no unit string.

Ask: I am curious: what kon value has been reported for A4-C9 (bispecific antibody) VQLQESGGGLVQPGGSLRLSCAASGSNFSINTMGWYRQAPGKQRELVATVTRGGDTNYADSVKGRFTISRDNAKNTVYLQMNSLRPEDTAVYYCHVDEIRESSWTTSNLWGQGTQVTVSSGGGGSGGGGSGGGGSVQLQESGGGLVQPGGSLRLSCAASGSNFSINTMGWYRQAPGKQRELVAALTRGGSTNYADSVKGRFTISRDNAKNTVYLQMNSLRPEDTAVYYCHVDEVRESSWTTSNLWGQGTQVTVSSGGGGSGGGGSGGGGSVQLQESGGGLVQPGGSLRLSCAASGSNFRINTMGWYRQAPGKQRELVAPVTRGGSTNYADSVKGRFTISRDNAKNTVYLQMNSLRPEDTAVYYCHVDEVRESSWTTSNLWGQGTQVTVSS ?
Result: 64300

Ask: I am curious: what kon value has been reported for A4-C7 (bispecific antibody) VQLQESGGGLVQPGGSLRLSCAASGSNFSINTMGWYRQAPGKQRELVATVTRGGDTNYADSVKGRFTISRDNAKNTVYLQMNSLRPEDTAVYYCHVDEIRESSWTTSNLWGQGTQVTVSSGGGGSGGGGSGGGGSVQLQESGGGLVQPGGSLRLSCAASGSNFRINTMGWYRQAPGKQRELVAPVTRGGSTNYADSVKGRFTISRDNAKNTVYLQMNSLRPEDTAVYYCHVDEVRESSWTTSNLWGQGTQVTVSSGGGGSGGGGSGGGGSVQLQESGGGLVQPGGSLRLSCAASGSSFTINTMGWYRQAPGKQRELVAAVTRGGSTNYAGSVKGRFTISRDNAKNTIYLQMNSLRPEDTAVYYCHVDEIRQSSWTTSNLWGQGTQVTVSS ?
Result: 437000

Ask: I am curious: what kon value has been reported for A4-B2 (bispecific antibody) VQLQESGGGLVQAGGSLRLSCAASGSRFSINTMGWYRQAPGKQREFVATVTRGGNTNYAESVKGRFTISRDNAKNTVYLQMNSLRPEDTAVYYCHVDEVRDSSWTTSNIWGQGTQVTVSSGGGGSGGGGSGGGGSVQLQESGGGLVQAGGSLRLSCAASGSTFSINTMGWYRQAPGKQRELVATITRGGNTNYADSVKGRFTISRDNAKNTVYLQMNSLRPEDTAVYYCHVDEVRQSSWTTSNLWGQGTQVTVSS ?
Result: 159000
